Where do the numbers come from? From ChEMBL document CHEMBL4229451.

Listed here: molecules with reported log10 IC50 for Estrogen receptor (Homo sapiens).
Starred links: 1 amine or outer side, 2 acyl side, 3 side chain; linkers in the order of their positions; H or OH if unused. Positions of bridges follow the written chain, without caps; N, C: chain ends. Non-standard residues stand in square brackets, D forms with d. Residues, ends and D or L forms follow the SMILES beside them. αMeNle(4R-Me,6-ylidene) = C[C@H](CC=[*:3])C[C@](C)(N[*:1])C(=O)[*:2]; X3 = C[C@@H](CC=[*:3])C[C@](C)(N[*:1])C(=O)[*:2]; S5 = C=CCCC[C@](C)(N)C(=O)O
Plainly stated, the numbers are log10 of IC50 given in nM.

// below: answered molecules
| MOLECULE | NUMBER |
| --- | --- |
| C=CCCC[C@](C)(NC(=O)[C@H](CCCCN)NC(=O)[C@H](Cc1cnc[nH]1)NC(C)=O)C(=O)N[C@@H](CC(C)C)C(=O)N[C@@H](Cc1cnc[nH]1)C(=O)N[C@@H](CCC(N)=O)C(=O)N[C@@](C)(CCCC=C)C(=O)N[C@@H](CC(C)C)C(=O)N[C@@H](CCC(N)=O)C(=O)N[C@@H](CC(=O)O)C(=O)N[C@@H](CO)C(N)=O (Ac-HK[S5]LHQ[S5]LQDS-NH2) | 3.08 |
| CC(=O)N[C@@H](Cc1cnc[nH]1)C(=O)N[C@@H](CCCCN)C(=O)N[C@@]1(C)C[C@H](C)C/C=C\CCC[C@@](C)(C(=O)N[C@@H](CC(C)C)C(=O)N[C@@H](CCC(N)=O)C(=O)N[C@@H](CC(=O)O)C(=O)N[C@@H](CO)C(N)=O)NC(=O)[C@H](CCCNC(=N)N)NC(=O)[C@H](Cc2cnc[nH]2)NC(=O)[C@H](CC(C)C)NC1=O (Ac-HK[αMeNle(4R-Me,6-ylidene)]LHR[S5]LQDS-NH2; staple (Z) 3-7) | 1.98 |
| CC(=O)N[C@@H](Cc1cnc[nH]1)C(=O)N[C@@H](CCCCN)C(=O)N[C@@]1(C)C[C@@H](C)C/C=C\CCC[C@@](C)(C(=O)N[C@@H](CC(C)C)C(=O)N[C@@H](CCC(N)=O)C(=O)N[C@@H](CC(=O)O)C(=O)N[C@@H](CO)C(N)=O)NC(=O)[C@H](CCCNC(=N)N)NC(=O)[C@H](Cc2cnc[nH]2)NC(=O)[C@H](CC(C)C)NC1=O (Ac-HK[X3]LHR[S5]LQDS-NH2; staple (Z) 3-7) | 1.95 |
| CC(=O)N[C@@H](Cc1cnc[nH]1)C(=O)N[C@@H](CCCCN)C(=O)N[C@@]1(C)CCC/C=C\C[C@@H](C)C[C@@](C)(C(=O)N[C@@H](CC(C)C)C(=O)N[C@@H](CCC(N)=O)C(=O)N[C@@H](CC(=O)O)C(=O)N[C@@H](CO)C(N)=O)NC(=O)[C@H](CCCNC(=N)N)NC(=O)[C@H](Cc2cnc[nH]2)NC(=O)[C@H](CC(C)C)NC1=O (Ac-HK[S5]LHR[αMeNle(4R-Me,6-ylidene)]LQDS-NH2; staple (Z) 3-7) | 3.26 |

Record request: log10 IC50 value, item CC(=O)N[C@@H](Cc1cnc[nH]1)C(=O)N[C@@H](CCCCN)C(=O)N[C@@]1(C)CCC/C=C\CCC[C@@](C)(C(=O)N[C@@H](CC(C)C)C(=O)N[C@@H](CCC(N)=O)C(=O)N[C@@H](CC(=O)O)C(=O)N[C@@H](CO)C(N)=O)NC(=O)[C@H](CCC(N)=O)NC(=O)[C@H](Cc2cnc[nH]2)NC(=O)[C@H](CC(C)C)NC1=O (Ac-HK[S5]LHQ[S5]LQDS-NH2; staple (Z) 3-7)
2.88
